# System: Streptococcus pyogenes
# protocolSummary: Experimental bacterial infection in mice, ED50
# Type: in vivo
# setupConditions: Streptococcus pyogenes, po, two doses, dose protecting 50% of animals, read-out: Oral ED50
measuredAttribute: ED50 (mg/kg)
// units = mg/kg; emit number, no label

Report ED50 on Streptococcus pyogenes for this entry: "CC[C@H]1OC(=O)[C@H](C)[C@@H](O[C@H]2C[C@@](C)(OC)[C@@H](O)[C@H](C)O2)[C@H](C)[C@@H](O[C@@H]2O[C@H](C)C[C@H](N(C)C)[C@H]2O)[C@](C)(O)C[C@@H](C)[C@H](NCC#Cc2ccccc2)[C@H](C)[C@@H](O)[C@]1(C)O"
26.7

Supply ED50 measured with Streptococcus pyogenes for "CC[C@H]1OC(=O)[C@H](C)[C@@H](O[C@H]2C[C@@](C)(OC)[C@@H](O)[C@H](C)O2)[C@H](C)[C@@H](O[C@@H]2O[C@H](C)C[C@H](N(C)C)[C@H]2O)[C@](C)(O)C[C@@H](C)[C@H](NCCOCCOC)[C@H](C)[C@@H](O)[C@]1(C)O" .
27.1

For Streptococcus pyogenes, give ED50 of the listed compound: "CCCCCCCCN[C@@H]1[C@H](C)[C@@H](O)[C@](C)(O)[C@@H](CC)OC(=O)[C@H](C)[C@@H](O[C@H]2C[C@@](C)(OC)[C@@H](O)[C@H](C)O2)[C@H](C)[C@@H](O[C@@H]2O[C@H](C)C[C@H](N(C)C)[C@H]2O)[C@](C)(O)C[C@H]1C"
23.4
